# System: clinical strains of Candida albicans
# protocol.text: MIC, clinical yeast strains, Candida albicans
# Assay type: cell-based
# Design: unit: μg/ml
# assay.setup: Candida albicans clinical yeast strain 2
Where a SMILES comes first, the peptide text is derived from it. [ ]: non-standard residue; d: D form.
readout: Minimum inhibitory concentration

Query: Entry C[C@@H]1[C@H](O)[C@@H](C)/C=C/C=C/C=C/C=C/C=C/C=C/C=C/[C@H](O[C@@H]2O[C@H](C)[C@@H](O)[C@H](N)[C@@H]2O)C[C@@H]2O[C@](O)(C[C@@H](O)C[C@@H](O)[C@H](O)CC[C@@H](O)C[C@@H](O)CC(=O)O[C@H]1C)C[C@H](O)[C@H]2C(=O)O [Amphotericin B, reference compound] has what Minimum inhibitory concentration?
Result: 0.5

Further cases:
Query: Entry CC(C)C[C@@H](NC(=O)[C@H](N)CCCCN)C(=O)N[C@H](CCCCN)C(=O)N[C@H](Cc1c[nH]c2ccccc12)C(=O)N[C@H](Cc1ccccc1)C(=O)N[C@H](Cc1c[nH]c2ccccc12)C(=O)N[C@H](CC(C)C)C(=O)N[C@H](Cc1ccccc1)C(=O)N[C@H](CCCCN)C(=O)N[C@H](CCCCN)C(=O)N[C@H](CCCNC(=N)N)C(=O)O [Chain311D] (H-[dK][dL][dK][dW][dF][dW][dL][dF][dK][dK][dR]-OH) has what Minimum inhibitory concentration?
Result: 8

====

# System: clinical strains of Candida albicans
# protocol.text: MIC, clinical yeast strains, Candida albicans
# Format: cell-based
# Design: unit: μg/ml
# assay.setup: Candida albicans clinical yeast strain 2
Where a SMILES comes first, the peptide text is derived from it. [ ]: non-standard residue; d: D form.
Consider the following compounds and their measured Minimum inhibitory concentration readings.
# output: bare number, no unit

Query: Entry CC(C)C[C@@H](NC(=O)[C@@H](CCCCN)NC(=O)[C@@H](CCCCN)NC(=O)[C@@H](Cc1ccccc1)NC(=O)[C@@H](CC(C)C)NC(=O)[C@@H](Cc1c[nH]c2ccccc12)NC(=O)[C@@H](CCCNC(=N)N)NC(=O)[C@@H](Cc1c[nH]c2ccccc12)NC(=O)[C@@H](CCCCN)NC(=O)[C@@H](CCCNC(=N)N)NC(=O)[C@H](N)CCCCN)C(=O)O [Chain310D] (H-[dK][dR][dK][dW][dR][dW][dL][dF][dK][dK][dL]-OH) has what Minimum inhibitory concentration?
Result: 16

Query: What about CC(C)C[C@@H](NC(=O)[C@H](N)CCCNC(=N)N)C(=O)N[C@H](CCCCN)C(=O)N[C@H](Cc1c[nH]c2ccccc12)C(=O)N[C@H](Cc1ccccc1)C(=O)N[C@H](CC(C)C)C(=O)N[C@H](CC(C)C)C(=O)N[C@H](Cc1ccccc1)C(=O)N[C@H](CCCNC(=N)N)C(=O)N[C@H](CCCCN)C(=O)N[C@H](CCCNC(=N)N)C(=O)O [Chain308D] (H-[dR][dL][dK][dW][dF][dL][dL][dF][dR][dK][dR]-OH) ?
Result: 16

Further cases:
Query: Entry CC(C)C[C@@H](NC(=O)[C@@H](CCCCN)NC(=O)[C@@H](Cc1c[nH]c2ccccc12)NC(=O)[C@@H](CCCCN)NC(=O)[C@@H](C)NC(=O)[C@@H](Cc1c[nH]cn1)NC(=O)[C@@H](CC(C)C)NC(=O)[C@@H](CCCNC(=N)N)NC(=O)[C@@H](Cc1c[nH]c2ccccc12)NC(=O)[C@H](N)Cc1c[nH]c2ccccc12)C(=O)N[C@H](Cc1c[nH]c2ccccc12)C(=O)O [Chain109D] (H-[dW][dW][dR][dL][dH][dA][dK][dW][dK][dL][dW]-OH) has what Minimum inhibitory concentration?
Result: 128

====

# Tested on: clinical strains of Streptococcus pneumoniae
# protocol.text: MIC, clinical strains of Streptococcus pneumoniae
# Format: cell-based
# Parameters: unit: µg/mL
# assay.setup: Streptococcus pneumoniae clinical strain 5; microdilution, Muller Hinton broth-cation adjusted, 0.02% BSA, 0.2% acetic acid
Where a SMILES comes first, the peptide text is derived from it. [ ]: non-standard residue; d: D form.
readout: Minimum inhibitory concentration

Query: Entry CC(C)C[C@@H](NC(=O)[C@H](N)CCCCN)C(=O)N[C@H](CCCCN)C(=O)N[C@H](Cc1c[nH]c2ccccc12)C(=O)N[C@H](Cc1ccccc1)C(=O)N[C@H](Cc1c[nH]c2ccccc12)C(=O)N[C@H](CC(C)C)C(=O)N[C@H](Cc1ccccc1)C(=O)N[C@H](CCCCN)C(=O)N[C@H](CCCCN)C(=O)N[C@H](CCCNC(=N)N)C(=O)O [Chain311D] (H-[dK][dL][dK][dW][dF][dW][dL][dF][dK][dK][dR]-OH) has what Minimum inhibitory concentration?
Result: 8

====

# Tested on: clinical strains of Escherichia coli
# protocol.text: MIC, clinical strains of E. coli
# Type: cell-based
# Parameters: unit: μg/ml
# assay.setup: Escherichia coli clinical strain 3; microdilution, Muller Hinton broth-cation adjusted, 0.02% BSA, 0.2% acetic acid
Where a SMILES comes first, the peptide text is derived from it. [ ]: non-standard residue; d: D form.
readout: Minimum inhibitory concentration
# output: bare number, no unit

Query: Entry CC(C)C[C@@H](NC(=O)[C@@H](Cc1c[nH]c2ccccc12)NC(=O)[C@@H](Cc1ccccc1)NC(=O)[C@@H](Cc1c[nH]c2ccccc12)NC(=O)[C@@H](CCCCN)NC(=O)[C@@H](CCCNC(=N)N)NC(=O)[C@H](N)Cc1c[nH]c2ccccc12)C(=O)N[C@H](Cc1ccccc1)C(=O)N[C@H](CCCCN)C(=O)N[C@H](CCCCN)C(=O)N[C@H](CCCNC(=N)N)C(=O)O [Chain309D] (H-[dW][dR][dK][dW][dF][dW][dL][dF][dK][dK][dR]-OH) has what Minimum inhibitory concentration?
Result: 16

====

Consider the following compounds and their measured Minimum inhibitory concentration readings.
# System: clinical strains of Streptococcus pneumoniae
# protocol.text: MIC, clinical strains of Streptococcus pneumoniae
# Assay type: cell-based
# Parameters: unit: µg/mL
# assay.setup: Streptococcus pneumoniae clinical strain 5; microdilution, Muller Hinton broth-cation adjusted, 0.02% BSA, 0.2% acetic acid
Where a SMILES comes first, the peptide text is derived from it. [ ]: non-standard residue; d: D form.

Query: Entry CC(C)C[C@@H](NC(=O)[C@@H](CCCCN)NC(=O)[C@@H](CCCCN)NC(=O)[C@@H](Cc1ccccc1)NC(=O)[C@@H](CC(C)C)NC(=O)[C@@H](Cc1c[nH]c2ccccc12)NC(=O)[C@@H](CCCNC(=N)N)NC(=O)[C@@H](Cc1c[nH]c2ccccc12)NC(=O)[C@@H](CCCCN)NC(=O)[C@@H](CCCNC(=N)N)NC(=O)[C@H](N)CCCCN)C(=O)O [Chain310D] (H-[dK][dR][dK][dW][dR][dW][dL][dF][dK][dK][dL]-OH) has what Minimum inhibitory concentration?
Result: 64

Query: What about CC(C)C[C@@H](NC(=O)[C@@H](Cc1c[nH]c2ccccc12)NC(=O)[C@@H](Cc1ccccc1)NC(=O)[C@@H](Cc1c[nH]c2ccccc12)NC(=O)[C@@H](CCCCN)NC(=O)[C@@H](CCCNC(=N)N)NC(=O)[C@H](N)Cc1c[nH]c2ccccc12)C(=O)N[C@H](Cc1ccccc1)C(=O)N[C@H](CCCCN)C(=O)N[C@H](CCCCN)C(=O)N[C@H](CCCNC(=N)N)C(=O)O [Chain309D] (H-[dW][dR][dK][dW][dF][dW][dL][dF][dK][dK][dR]-OH) ?
Result: 64

====

# Tested on: clinical strains of Serratia marcescens
# protocol.text: MIC, clinical strains of Serratia marcescens
# Assay type: cell-based
# Set-up: unit: µg/mL
# assay.setup: Serratia marcescens clinical strain 1; microdilution, Muller Hinton broth-cation adjusted, 0.02% BSA, 0.2% acetic acid
Where a SMILES comes first, the peptide text is derived from it. [ ]: non-standard residue; d: D form.
Consider the following compounds and their measured Minimum inhibitory concentration readings.

Query: Write down the reported Minimum inhibitory concentration of CC[C@@H](C)[C@@H](NC(=O)[C@@H](Cc1c[nH]c2ccccc12)NC(=O)[C@H](N)CCCCN)C(=O)N[C@@H](C(=O)N[C@H](Cc1c[nH]c2ccccc12)C(=O)N[C@H](CCCNC(=N)N)C(=O)N[C@H](Cc1c[nH]c2ccccc12)C(=O)N[C@H](CCCNC(=N)N)C(=O)N[C@H](Cc1ccccc1)C(=O)N[C@H](CCCCN)C(=O)N[C@H](CCCNC(=N)N)C(=O)O)C(C)C [Chain201D] (H-[dK][dW][dI][dV][dW][dR][dW][dR][dF][dK][dR]-OH) , test system: clinical strains of Serratia marcescens.
Result: 64

Query: What about CC[C@@H](C)[C@@H](N)C(=O)N[C@H](Cc1c[nH]c2ccccc12)C(=O)N[C@H](CCCCN)C(=O)N[C@H](CCCNC(=N)N)C(=O)N[C@H](Cc1ccccc1)C(=O)N[C@H](CCCNC(=N)N)C(=O)N[C@H](CC(C)C)C(=O)N[C@H](Cc1ccccc1)C(=O)N[C@H](CCCCN)C(=O)N[C@H](CCCCN)C(=O)N[C@H](Cc1c[nH]c2ccccc12)C(=O)O [Chain304D] (H-[dI][dW][dK][dR][dF][dR][dL][dF][dK][dK][dW]-OH) ?
Result: >128

Query: What about CC(C)C[C@@H](NC(=O)[C@H](N)CCCNC(=N)N)C(=O)N[C@H](CCCCN)C(=O)N[C@H](Cc1c[nH]c2ccccc12)C(=O)N[C@H](Cc1ccccc1)C(=O)N[C@H](Cc1c[nH]c2ccccc12)C(=O)N[C@H](CC(C)C)C(=O)N[C@H](Cc1ccccc1)C(=O)N[C@H](CCCNC(=N)N)C(=O)N[C@H](CCCCN)C(=O)N[C@H](CCCNC(=N)N)C(=O)O [Chain307D] (H-[dR][dL][dK][dW][dF][dW][dL][dF][dR][dK][dR]-OH) ?
Result: >128

Query: What about CC(C)C[C@@H](NC(=O)[C@@H](CCCCN)NC(=O)[C@@H](CCCCN)NC(=O)[C@@H](Cc1ccccc1)NC(=O)[C@@H](CC(C)C)NC(=O)[C@@H](Cc1c[nH]c2ccccc12)NC(=O)[C@@H](CCCNC(=N)N)NC(=O)[C@@H](Cc1c[nH]c2ccccc12)NC(=O)[C@@H](CCCCN)NC(=O)[C@@H](CCCNC(=N)N)NC(=O)[C@H](N)CCCCN)C(=O)O [Chain310D] (H-[dK][dR][dK][dW][dR][dW][dL][dF][dK][dK][dL]-OH) ?
Result: >128

Query: What about CC(C)C[C@@H](NC(=O)[C@H](N)CCCNC(=N)N)C(=O)N[C@H](CCCCN)C(=O)N[C@H](CCCNC(=N)N)C(=O)N[C@H](Cc1c[nH]c2ccccc12)C(=O)N[C@H](CCCNC(=N)N)C(=O)N[C@H](CC(C)C)C(=O)N[C@H](Cc1ccccc1)C(=O)N[C@H](CCCNC(=N)N)C(=O)N[C@H](CCCCN)C(=O)N[C@H](CCCNC(=N)N)C(=O)O [Chain306D] (H-[dR][dL][dK][dR][dW][dR][dL][dF][dR][dK][dR]-OH) ?
Result: >128

Query: What about CC(C)C[C@@H](NC(=O)[C@H](N)CCCNC(=N)N)C(=O)N[C@H](CCCCN)C(=O)N[C@H](Cc1c[nH]c2ccccc12)C(=O)N[C@H](Cc1ccccc1)C(=O)N[C@H](CC(C)C)C(=O)N[C@H](CC(C)C)C(=O)N[C@H](Cc1ccccc1)C(=O)N[C@H](CCCNC(=N)N)C(=O)N[C@H](CCCCN)C(=O)N[C@H](CCCNC(=N)N)C(=O)O [Chain308D] (H-[dR][dL][dK][dW][dF][dL][dL][dF][dR][dK][dR]-OH) ?
Result: 128

Query: What about CC[C@@H](C)[C@@H](NC(=O)[C@@H](CC(C)C)NC(=O)[C@@H](CCCNC(=N)N)NC(=O)[C@H](N)CCCNC(=N)N)C(=O)N[C@H](Cc1c[nH]c2ccccc12)C(=O)N[C@H](CCCNC(=N)N)C(=O)N[C@H](CCCNC(=N)N)C(=O)N[C@H](Cc1ccccc1)C(=O)N[C@H](CCCCN)C(=O)N[C@H](Cc1c[nH]c2ccccc12)C(=O)N[C@H](CC(C)C)C(=O)N[C@H](CCCNC(=N)N)C(=O)O [Chain204D] (H-[dR][dR][dL][dI][dW][dR][dR][dF][dK][dW][dL][dR]-OH) ?
Result: >128

Query: What about CC(C)C[C@@H](NC(=O)[C@@H](Cc1c[nH]c2ccccc12)NC(=O)[C@@H](Cc1ccccc1)NC(=O)[C@@H](Cc1c[nH]c2ccccc12)NC(=O)[C@@H](CCCCN)NC(=O)[C@@H](CCCNC(=N)N)NC(=O)[C@H](N)Cc1c[nH]c2ccccc12)C(=O)N[C@H](Cc1ccccc1)C(=O)N[C@H](CCCCN)C(=O)N[C@H](CCCCN)C(=O)N[C@H](CCCNC(=N)N)C(=O)O [Chain309D] (H-[dW][dR][dK][dW][dF][dW][dL][dF][dK][dK][dR]-OH) ?
Result: >128

Please examine the following record next.
Query: Write down the reported Minimum inhibitory concentration of CC(C)C[C@@H](NC(=O)[C@H](N)CCCCN)C(=O)N[C@H](CCCCN)C(=O)N[C@H](Cc1c[nH]c2ccccc12)C(=O)N[C@H](Cc1ccccc1)C(=O)N[C@H](Cc1c[nH]c2ccccc12)C(=O)N[C@H](CC(C)C)C(=O)N[C@H](Cc1ccccc1)C(=O)N[C@H](CCCCN)C(=O)N[C@H](CCCCN)C(=O)N[C@H](CCCNC(=N)N)C(=O)O [Chain311D] (H-[dK][dL][dK][dW][dF][dW][dL][dF][dK][dK][dR]-OH) , test system: clinical strains of Serratia marcescens.
Result: >128
